Target: TF on the surface of tumor cells (MDA-MB-231, HPAF-II, HCC1806, BxPC3, HCC44, PC9, H1975 and other … (UniProt P13726 33-295, limits assumed))
Assay: cell-based or functional assay
Endpoint name: Cell proliferation inhibition IC50, HPAF-II cells (MTS) (ng/mL)

{"Binder": "5-C12-FC1-MMAE (5-C12-FC1 coupled to mc-vc-MMAE) (Fc fusion, mc-vc-MMAE coupled to cysteine thiols after TCEP reduction; DAR4 about 66.2% and DAR2 about 21.9% by HIC; positions not given) QVQLVESGGGLAQAGGSLRLSCAGSGRTFSTDAMGWFRQAPGKEREFVAAINWSGGSTYYADSVKGRFTISRDNAKNTVYLQMNSVKPEDTAVYYCVADSLLALLDGSRGGPGTDSDSWGQGTQVTVSSEPKSSDKTHTCPPCPAPEFEGGPSVFLFPPKPKDTLMISRTPEVTCVVVDVSHEDPEVKFNWYVDGVEVHNAKTKPREEQYNSTYRVVSVLTVLHQDWLNGKEYKCKVSNKALPASIEKTISKAKGQPREPQVYTLPPSRDELTKNQVSLTCLVKGFYPSDIAVEWESNGQPENNYKTTPPVLDSDGSFFLYSKLTVDKSRWQQGNVFSCSVMHEALHNHYTQKSLSLSPGK", "Unit of measure": "ng/mL", "Test value": 12}
{"Binder": "4-C05-FC1-MMAE (4-C05-FC1 coupled to mc-vc-MMAE) (Fc fusion, mc-vc-MMAE coupled to cysteine thiols after TCEP reduction; target DAR 4; positions not given) QVQLVESGGGLVQPGGSLRLSCAASGFTLDTYAIGWIRQAPGKEREGVSCISSTDGSTYYAASVKGRFTINRDNAKNTVYLQMNSLKPEDTAVYYCAAGPGTDCPLRFDYWGQGIQVTVSSEPKSSDKTHTCPPCPAPEFEGGPSVFLFPPKPKDTLMISRTPEVTCVVVDVSHEDPEVKFNWYVDGVEVHNAKTKPREEQYNSTYRVVSVLTVLHQDWLNGKEYKCKVSNKALPASIEKTISKAKGQPREPQVYTLPPSRDELTKNQVSLTCLVKGFYPSDIAVEWESNGQPENNYKTTPPVLDSDGSFFLYSKLTVDKSRWQQGNVFSCSVMHEALHNHYTQKSLSLSPGK", "Unit of measure": "ng/mL", "Test value": 7.7}
{"Binder": "4-A02-FC1-MMAE (4-A02-FC1 coupled to mc-vc-MMAE) (Fc fusion, mc-vc-MMAE coupled to cysteine thiols after TCEP reduction; target DAR 4 for the dimer (about 95% DAR4 by HIC); positions not given) QVQLVESGGGLVQPGGSLSLSCTASETISSTYIMGWHRRSPGKERELVAVISGDGVTHYADFVKGRFVISRDNAKNAVYLKMNFLTPEDTAVYYCYAAGRWNHWGQGTQVTVSSEPKSSDKTHTCPPCPAPEFEGGPSVFLFPPKPKDTLMISRTPEVTCVVVDVSHEDPEVKFNWYVDGVEVHNAKTKPREEQYNSTYRVVSVLTVLHQDWLNGKEYKCKVSNKALPASIEKTISKAKGQPREPQVYTLPPSRDELTKNQVSLTCLVKGFYPSDIAVEWESNGQPENNYKTTPPVLDSDGSFFLYSKLTVDKSRWQQGNVFSCSVMHEALHNHYTQKSLSLSPGK", "Unit of measure": "ng/mL", "Test value": 0.7}
{"Binder": "4-E04-FC1-MMAE (4-E04-FC1 coupled to mc-vc-MMAE) (Fc fusion, mc-vc-MMAE coupled to cysteine thiols after TCEP reduction; the coupling did not complete and the proportion of coupling products was very low; positions not given) AVQLVESGGGLVQPGGSLSLSCAASEMISSTYIMGWYRRSPGKERELVAVISGDGVTHYGDFVKGRFAISRDNVKNAVYLKMNFLTPEDTAVYYCNAAGRRNHWGQGTQVTVSSEPKSSDKTHTCPPCPAPEFEGGPSVFLFPPKPKDTLMISRTPEVTCVVVDVSHEDPEVKFNWYVDGVEVHNAKTKPREEQYNSTYRVVSVLTVLHQDWLNGKEYKCKVSNKALPASIEKTISKAKGQPREPQVYTLPPSRDELTKNQVSLTCLVKGFYPSDIAVEWESNGQPENNYKTTPPVLDSDGSFFLYSKLTVDKSRWQQGNVFSCSVMHEALHNHYTQKSLSLSPGK", "Unit of measure": "ng/mL", "Test value": 24.3}
{"Binder": "4-C08-FC1-MMAE (4-C08-FC1 coupled to mc-vc-MMAE) (Fc fusion, mc-vc-MMAE coupled to cysteine thiols after TCEP reduction; DAR4 about 41.8% and DAR2 about 42.7% by HIC; positions not given) DVQLVESGGGLVQPGGSLRLSCAVSGFSLSSYDMNWYRQGPGKEREWVANIHSSGGYPDYADAVKGRFTISRDNAKNMVYLQMNSLKPEDTAVYYCNLPPSRRWYKDYWGQGTQVTVSSEPKSSDKTHTCPPCPAPEFEGGPSVFLFPPKPKDTLMISRTPEVTCVVVDVSHEDPEVKFNWYVDGVEVHNAKTKPREEQYNSTYRVVSVLTVLHQDWLNGKEYKCKVSNKALPASIEKTISKAKGQPREPQVYTLPPSRDELTKNQVSLTCLVKGFYPSDIAVEWESNGQPENNYKTTPPVLDSDGSFFLYSKLTVDKSRWQQGNVFSCSVMHEALHNHYTQKSLSLSPGK", "Unit of measure": "ng/mL", "Test value": 1}
{"Binder": "F1-A01-FC1-MMAE (F1-A01-FC1 coupled to mc-vc-MMAE) (Fc fusion, mc-vc-MMAE coupled to cysteine thiols after TCEP reduction; target DAR 4 (about 91% DAR4 by HIC); positions not given) EVQLVESGGGLVQAGGSLRLSCAASGRAFSAYAMGWFRQAPGKEREFVAAISWSGGSTYYADSVRGRFTISRDNTKNTVYLQMNSLKPEDTAVYYCNADSLLSLLDGSRGGPGTDSGSWGQGTQVTVSSEPKSSDKTHTCPPCPAPEFEGGPSVFLFPPKPKDTLMISRTPEVTCVVVDVSHEDPEVKFNWYVDGVEVHNAKTKPREEQYNSTYRVVSVLTVLHQDWLNGKEYKCKVSNKALPASIEKTISKAKGQPREPQVYTLPPSRDELTKNQVSLTCLVKGFYPSDIAVEWESNGQPENNYKTTPPVLDSDGSFFLYSKLTVDKSRWQQGNVFSCSVMHEALHNHYTQKSLSLSPGK", "Unit of measure": "ng/mL", "Test value": 0.7}
